Ref: patent US20150352108A1

Target Entity: IKKε (Homo sapiens, UniProt Q14164)
Construct: His-tag; made in house; host or cells: Sf9 insect cells
Experimental Details: In-vitro IKKε kinase assay ([γ33]ATP filter-plate)
Assay type: biochemical
Measurement Context: text bins; read-out: IC50 for inhibition of the kinase activity of IKKε
Result Type: IC50

Check out these entries, answers already filled in.
Molecule	Val
N#Cc1cc(-c2ccnc(Nc3ccc(N4CCOCC4)cc3)n2)ccc1OCC1CCN(C(=O)CO)C1 (stereo not shown)	5 to 50 nM
N#Cc1cc(-c2ccnc(Nc3ccc(-n4cnnc4)cc3)n2)ccc1OC1CCOCC1	< 5 nM
COc1ccc(-c2ccnc(Nc3cccc(S(=O)(=O)NCCCO)c3)n2)cc1C#N	50 to 500 nM

The record that follows has no IC50 shown yet.
Fill in: IKKε (Homo sapiens, UniProt Q14164) IC50 for "CS(=O)(=O)NCc1ccc(Nc2nccc(-c3ccc(OC4CCOCC4)c(C#N)c3)n2)cc1" = < 5 nM

---

Target Entity: TBK1 (Homo sapiens, UniProt Q9UHD2)
Construct: His-tag; made in house; host or cells: Sf9 insect cells
Sequence (Q9UHD2 whole entry): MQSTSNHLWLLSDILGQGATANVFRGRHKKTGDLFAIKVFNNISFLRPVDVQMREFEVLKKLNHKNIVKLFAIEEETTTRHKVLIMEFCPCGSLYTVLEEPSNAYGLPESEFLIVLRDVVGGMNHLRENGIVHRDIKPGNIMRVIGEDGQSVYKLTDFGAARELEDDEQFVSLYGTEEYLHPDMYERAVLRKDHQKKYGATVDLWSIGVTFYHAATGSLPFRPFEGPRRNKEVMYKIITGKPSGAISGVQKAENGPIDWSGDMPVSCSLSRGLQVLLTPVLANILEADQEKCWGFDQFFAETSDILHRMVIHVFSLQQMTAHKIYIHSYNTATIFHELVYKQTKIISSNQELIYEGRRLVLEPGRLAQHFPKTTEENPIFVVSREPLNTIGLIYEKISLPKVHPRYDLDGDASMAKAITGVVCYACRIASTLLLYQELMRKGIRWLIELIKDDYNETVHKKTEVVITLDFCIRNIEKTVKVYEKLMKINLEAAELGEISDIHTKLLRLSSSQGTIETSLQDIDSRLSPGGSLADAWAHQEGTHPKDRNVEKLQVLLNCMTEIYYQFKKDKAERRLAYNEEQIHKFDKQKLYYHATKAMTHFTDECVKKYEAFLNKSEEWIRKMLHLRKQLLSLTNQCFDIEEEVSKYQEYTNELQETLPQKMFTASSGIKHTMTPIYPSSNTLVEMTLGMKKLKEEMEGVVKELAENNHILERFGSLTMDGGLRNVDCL
Experimental Details: In-vitro TBK1 kinase assay ([γ33]ATP filter-plate)
Assay type: biochemical
Measurement Context: text bins; read-out: IC50 for inhibition of the kinase activity of TBK1
Result Type: IC50

Reported IC50 (TBK1 (Homo sapiens, UniProt Q9UHD2)) for entry COCCNCc1ccc(Nc2nccc(-c3ccc(OC4CCOCC4)c(C#N)c3)n2)cc1OC [compound 478] is < 10 nM

Reported IC50 (TBK1 (Homo sapiens, UniProt Q9UHD2)) for entry CC(C)COc1ccc(-c2ccnc(Nc3ccc(CS(=O)(=O)NCCO)cc3)n2)cc1C#N [compound 645] is < 10 nM

COc1cc(Nc2nccc(-c3ccc(OC4CCOCC4)c(C#N)c3)n2)ccc1C(=O)N1CC(OC)C1 [compound 484] on TBK1 (Homo sapiens, UniProt Q9UHD2) gives IC50 = 10 to 100 nM

Reported IC50 (TBK1 (Homo sapiens, UniProt Q9UHD2)) for entry COc1cc(-c2ccnc(Nc3ccc(CN4CCN(CCO)CC4)cc3)n2)cc(C#N)c1OC1CCOCC1 [compound 443] is 10 to 100 nM

---

Target Entity: IKKε (Homo sapiens)
Construct: His-tag; made in house; host or cells: Sf9 insect cells
Sequence (Q14164 1-716): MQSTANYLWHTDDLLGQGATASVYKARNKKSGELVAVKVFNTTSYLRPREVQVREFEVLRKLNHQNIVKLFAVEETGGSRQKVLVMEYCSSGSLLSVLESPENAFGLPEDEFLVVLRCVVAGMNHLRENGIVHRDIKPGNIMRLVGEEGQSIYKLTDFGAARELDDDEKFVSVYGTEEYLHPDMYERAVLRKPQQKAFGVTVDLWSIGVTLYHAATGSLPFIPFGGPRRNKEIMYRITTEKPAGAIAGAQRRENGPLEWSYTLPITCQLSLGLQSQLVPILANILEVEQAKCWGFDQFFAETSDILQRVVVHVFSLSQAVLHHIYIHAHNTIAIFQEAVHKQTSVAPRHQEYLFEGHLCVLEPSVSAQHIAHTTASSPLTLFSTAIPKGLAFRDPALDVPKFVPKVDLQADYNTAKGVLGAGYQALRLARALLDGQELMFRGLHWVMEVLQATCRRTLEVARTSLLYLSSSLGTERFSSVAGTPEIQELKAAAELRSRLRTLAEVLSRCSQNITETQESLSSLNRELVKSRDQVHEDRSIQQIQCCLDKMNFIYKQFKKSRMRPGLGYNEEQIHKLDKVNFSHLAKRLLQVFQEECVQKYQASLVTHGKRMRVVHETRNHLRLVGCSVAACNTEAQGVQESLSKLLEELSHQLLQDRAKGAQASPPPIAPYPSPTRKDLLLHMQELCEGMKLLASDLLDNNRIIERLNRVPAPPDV
Experimental Details: In-vitro IKKε kinase assay ([γ33]ATP filter-plate)
Assay type: biochemical
Measurement Context: text bins; read-out: IC50 for inhibition of the kinase activity of IKKε
Protocol: IKKε enzyme was produced as a His-tag fusion in Sf9 cells and used at a final concentration of […]. TBK1 enzyme was produced as a His-tag fusion in Sf9 cells and used at a final concentration of 0.1 μg/ml. […] After air drying, scintillant (PerkinElmer, Waltham, Mass.) was added and the plates were read on a PerkinElmer TopCount NXT instrument. […]
pIC50: −log10 of the molar value.
Each entry below carries its reported pIC50.

Compound	Target Entity	Val
COc1cc(NC(=O)c2cccnc2)cc(Nc2nccc(-c3ccc(OC)c(C#N)c3)n2)c1	IKKε (Homo sapiens)	7.30 to 8.30
CN1CCN(c2ccc(Nc3nccc(-c4ccc(OC5CCOCC5)c(C#N)c4)n3)cc2)CC1	IKKε (Homo sapiens)	> 8.30
N#Cc1cc(-c2ccnc(Nc3cccc(N)c3)n2)ccc1OC1CCOCC1	IKKε (Homo sapiens)	> 8.30
N#Cc1cc(-c2ccnc(Nc3ccc(N4CCOCC4)cc3)n2)ccc1OC1CCN(C(=O)CO)CC1	IKKε (Homo sapiens)	> 8.30
CC(C)COc1ccc(-c2ccnc(Nc3ccc(N4CCN(CCO)CC4)cc3)n2)cc1C#N	IKKε (Homo sapiens)	> 8.30
COc1ccc(-c2ccnc(Nc3cccc(N)c3)n2)cc1C#N	IKKε (Homo sapiens)	7.30 to 8.30
N#Cc1cc(-c2ccnc(Nc3ccc(N4CCOCC4)cc3)n2)ccc1O[C@H]1CCN(C(=O)CO)C1	IKKε (Homo sapiens)	7.30 to 8.30
CNc1ccc(-c2ccnc(Nc3ccc(OC)c(OC)c3)n2)cc1C#N	IKKε (Homo sapiens)	> 8.30
CN1CCN(c2ccc(Nc3nccc(-c4cc(C#N)cc(OCc5ccccc5)c4)n3)cc2)CC1	IKKε (Homo sapiens)	6.30 to 7.30
COc1cc(Nc2nc(-c3ccc(OC4CCOCC4)c(C#N)c3)c3nc[nH]c3n2)ccc1N1CCOCC1	IKKε (Homo sapiens)	7.30 to 8.30

Noted for "N#Cc1cc(-c2ccnc(Nc3ccc4[nH]cnc4c3)n2)ccc1OC1CCOCC1" : its pIC50 reads > 8.30

response.value for "COCC(=O)Nc1cc(Nc2nccc(-c3ccc(OC)c(C#N)c3)n2)cc(OC)c1" (field: pIC50) = 7.30 to 8.30

pIC50 recorded for this compound, "COc1cc(NC(=O)c2ccncc2)cc(Nc2nccc(-c3ccc(OC)c(C#N)c3)n2)c1" , is 6.30 to 7.30
